Each recorded value in this set is attributed to patent US20230003721A1.

test system: primary forebrain neurons; test: cells; conditions: Mus musculus, Neuron, 24 h, read-out: Mt Content (Dend Mt CA) EC50
Structures can show the parent of a compound that is named as a salt.
Mark Criterion met only when EC50 stays strictly below 200 nM. Values equal to the cut-off are Criterion not met.

// known answers, use as guide
COc1ccccc1-c1coc2cc(O)ccc2c1=O [7-HYDROXY-2′-METHOXYISOFLAVONE]; Criterion not met
COc1ccccc1N1CCN(CC(O)COc2cccc3ccccc23)CC1 (centres unmarked); Criterion met
O=C(/C=C/c1ccccc1)c1ccc(O)cc1 [4′-HYDROXYCHALCONE]; Criterion not met

input: # TODO verify EC50 < 200 nM strictly for this molecule: COC(=O)[C@@H]1[C@H]2C[C@H]3c4[nH]c5ccccc5c4CCN3C[C@@H]2CC[C@@H]1O [YOHIMBINE HYDROCHLORIDE]
output: Criterion met

input: EC50 under 200 nM? Item: C#CCN(C)CCCOc1ccc(Cl)cc1Cl [CLORGILINE HYDROCHLORIDE]
output: Criterion not met

###

system: primary neurons; experiment: CellTiter-Glo luminescence-based ATP assay; format: cell-based, mouse; settings: Mus musculus, Primary neuron; maximal percent increase relative to in-plate DMSO controls, dose response; read-out: ATP (Effect-size)
Structures can show the parent of a compound that is named as a salt.
For each of the compounds below, state its Emax.
Answers are plain numbers, in %.

A selection of reference data follows.
OC1(c2ccc(Cl)c(C(F)(F)F)c2)CCN(CCCC(c2ccc(F)cc2)c2ccc(F)cc2)CC1; 22.4
COc1ccccc1N1CCN(CC(O)COc2cccc3ccccc23)CC1 (stereo not drawn); 15
CCCCOc1cc(C(=O)OCCN(CC)CC)ccc1N [benoxinate hydrochloride]; 21.4

For each of the compounds below, note its Emax.
1. CNCCC=C1c2ccccc2CCc2ccccc21 [nortriptyline hydrochloride]
2. Cc1ccc(-c2cc(C(F)(F)F)nn2-c2ccc(S(N)(=O)=O)cc2)cc1
3. COC(=O)[C@@H]1[C@H]2C[C@H]3c4[nH]c5ccccc5c4CCN3C[C@@H]2CC[C@@H]1O [YOHIMBINE HYDROCHLORIDE]
4. C[N+]12CCC(CC1)C(OC(=O)C(O)(c1ccccc1)c1ccccc1)C2 (stereo not drawn) [clidinium bromide]

output:
1: 16.5; 2: 20.7; 3: 23.6; 4: 20.5

###

test system: primary forebrain neurons; assay: cells; conditions: rescreen, 12.5 μM, 24 h, vs DMSO wells
REPORTED ENDPOINT: Dendritic Mt CA (robust Z-scores)
Answers are plain numbers, in robust Z-scores.

Example results:
CCCCCOC(=O)Nc1nc(=O)n([C@@H]2O[C@H](C)[C@@H](O)[C@H]2O)cc1F; 2.88
O=c1c(O)c(-c2ccccc2)oc2cccc(O)c12 [3,5-DIHYDROXYFLAVONE]; 3.43
O=c1c(O)c(-c2ccccc2)oc2cc(O)ccc12 [3,7-DIHYDROXYFLAVONE]; 2.78

input: Identify Dendritic Mt CA associated with the compound Cc1ccc([C@@H]2O[C@H](CO)[C@@H](O)[C@H](O)[C@H]2O)cc1Cc1ccc(-c2ccc(F)cc2)s1
output: 2.93

###

system: primary forebrain neurons; assay: cells; settings: rescreen, 12.5 μM, 24 h, vs DMSO wells
Counter-ions that a name gives are not always drawn.
Dendritic Mt CA vs 4 robust Z-scores: less than gives Met; not less than gives Not met.

Some solved entries appear below for comparison.
COc1ccc2c(c1)[nH]c1c(C)nccc12; Met
Nc1nnc(-c2cccc(Cl)c2Cl)c(N)n1; Not met
OC(CCN1CCCCC1)(c1ccccc1)c1ccccc1 [PRIDINOL METHANESULFONATE]; Met
Cc1cccc(N(C)C(=S)Oc2ccc3ccccc3c2)c1 [TOLNAFTATE]; Met
COC(=O)[C@@H]1[C@H]2C[C@H]3c4[nH]c5ccccc5c4CCN3C[C@@H]2CC[C@@H]1O [YOHIMBINE HYDROCHLORIDE]; Met
COc1ccc(/C=C/c2cc(O)cc(O)c2)cc1; Met
CCN(CCCc1ccccc1)CCCc1ccccc1 [ALVERINE CITRATE]; Not met
COc1ccccc1N1CCN(CC(O)COc2cccc3ccccc23)CC1 (stereo not drawn); Not met

Next:
input: A record lists O=c1c(-c2ccc(O)cc2)coc2cc(O)cc(O)c12 . Is its Dendritic Mt CA below 4 robust Z-scores?
output: Met
